TEST SUMMARY: in vitro
APPLIED CONDITIONS: rat, gh3-tre-luc cells, AC50 (uM) modified / 1000, Tox21_110001=Tox21_110399; viability, 1 nM T3 present, 24 h
ENDPOINT NAME: CC50 at 24 h

Look at this compound and give its reported CC50 at 24 h. OC(c1ccccc1)(c1ccccc1)C1CCNCC1
> 20 µM

###

TEST SUMMARY: in vitro
APPLIED CONDITIONS: rat, gh3-tre-luc cells, AC50 (uM) modified / 1000
Structures can show the parent of a compound that is named as a salt.
ENDPOINT NAME: CC50 at 24 h

Please report the recorded CC50 at 24 h for NC(=O)c1ccccc1 [Benzamide] .
> 90 µM

# lookup: CC50 at 24 h of CCOC(CN1CCN(CC(C)C(=O)c2ccccc2)CC1)c1ccccc1 (stereo not drawn) [Eprazinone dihydrochloride]
> 50 µM

Which CC50 at 24 h is reported for this compound? Cc1c(Cl)cccc1Cl
> 90 µM

Any idea what its CC50 at 24 h is? The compound is c1ccc2c(c1)CCCC2
> 90 µM

Form field: reported CC50 at 24 h of NC(=S)C(N)=S [Dithiooxamide]
> 90 µM

State the recorded CC50 at 24 h for this entry: CCCC(=O)O[C@]1(C(=O)COC(=O)CC)[C@@H](C)C[C@H]2[C@@H]3CCC4=CC(=O)C=C[C@]4(C)[C@@]3(F)[C@@H](O)C[C@@]21C [Betamethasone butyrate propionate]
> 50 µM

Dear colleague, I am looking for the recorded CC50 at 24 h of the following compound: O=Nc1ccc(O)cc1
> 90 µM

Please report the recorded CC50 at 24 h for CCCCc1ccc2c(n1)[C@@H](c1ccc(OC)cc1C[C@H](C)C(=O)O)[C@H](C(=O)O)[C@H]2c1ccc2c(c1)OCO2 .
> 90 µM

Would you kindly share the measured CC50 at 24 h for C=C(C)C(=O)OCCCC [Butyl methacrylate] ?
> 90 µM

###

TEST SUMMARY: in vitro
APPLIED CONDITIONS: rat, gh3-tre-luc cells, AC50 (uM) modified / 1000, Tox21_110001=Tox21_301323; viability, 1 nM T3 present, 24 h
ENDPOINT NAME: CC50 at 24 h

Please report the recorded CC50 at 24 h for CC(C)c1ccc(O)cc1 .
> 90 µM

###

System: GH3-TRE-Luc cell line
APPLIED CONDITIONS: read-out: AC50 (uM) modified / 1000; Tox21_110001=Tox21_300920; viability, 1 nM T3 present, 24 h
ENDPOINT NAME: CC50 (µM)
All answers are understood in µM, so give the number only.

Form field: CC50 recorded for CC(C)=CC1C(C(=O)OCc2coc(Cc3ccccc3)c2)C1(C)C (stereo not shown) [Resmethrin] with GH3-TRE-Luc cell line (enter value)
55.3

###

System: GH3-TRE-Luc cell line
APPLIED CONDITIONS: read-out: AC50 (uM) modified / 1000; Tox21_110001=Tox21_300554; viability, 1 nM T3 present, 24 h
ENDPOINT NAME: CC50 (µM)
A number alone suffices; assume µM.

Recall the recorded CC50 for O=C(O)C1=NN(c2ccc(S(=O)(=O)O)cc2)C(=O)C1N=Nc1ccc(S(=O)(=O)O)cc1 (stereo not shown) [FD&C Yellow 5] with GH3-TRE-Luc cell line and state it.
61.1
